biological target: hGHQ40N, P01241
Sequence (P01241 27-217 Q66N): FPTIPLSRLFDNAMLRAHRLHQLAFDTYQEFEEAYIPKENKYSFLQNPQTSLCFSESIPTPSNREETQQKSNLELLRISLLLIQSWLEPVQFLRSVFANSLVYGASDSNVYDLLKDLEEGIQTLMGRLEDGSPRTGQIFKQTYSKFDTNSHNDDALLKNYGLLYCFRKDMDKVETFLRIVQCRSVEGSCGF
What Activity towards hGHQ40N (RFU/sec/µg) was measured for each of the following?
Numbers only, in RFU/sec/µg.

* AlaPro-mTGase from S. ladakanum (protein) APDSDERVTPPAEPLDRMPDPYRPSYGRAETIVNNYIRKWQQVYSHRDGRKQQMTEEQREWLSYGCVGVTWVNSGQYPTNRLAFAFFDEDKYKNELKNGRPRSGETRAEFEGRVAKDSFDEAKGFQRARDVASVMNKALENAHDEGAYLDNLKKELANGNDALRNEDARSPFYSALRNTPSFKDRNGGNHDPSKMKAVIYSKHFWSGQDRSGSSDKRKYGDPEAFRPDRGTGLVDMSRDRNIPRSPTSPGESFVNFDYGWFGAQTEADADKTVWTHGNHYHAPNGSLGAMHVYESKFRNWSDGYSDFDRGAYVVTFVPKSWNTAPDKVKQGWP | 6.91

Then there is this protein:
Activity towards hGHQ40N (RFU/sec/µg) reading for mTGase from Streptomyces mobaraensis (protein) DSDDRVTPPAEPLDRMPDPYRPSYGRAETVVNNYIRKWQQVYSHRDGRKQQMTEEQREWLSYGCVGVTWVNSGQYPTNRLAFASFDEDRFKNELKNGRPRSGETRAEFEGRVAKESFDEEKGFQRAREVASVMNRALENAHDESAYLDNLKKELANGNDALRNEDARSPFYSALRNTPSFKERNGGNHDPSRMKAVIYSKHFWSGQDRSSSADKRKYGDPDAFRPAPGTGLVDMSRDRNIPRSPTSPGEGFVNFDYGWFGAQTEADADKTVWTHGNHYHAPNGSLGAMHVYESKFRNWSEGYSDFDRGAYVITFIPKSWNTAPDKVKQGWP : 3.35
